# method-description: Solubility in pH 7.4 phosphate buffer solution at 100 uM after 24 hrs by HPLC method
# Format: physicochemical
# condition-context: phosphate buffer, pH 7.4

compound: Cc1cc2ccc(Nc3c(NCCCCCC(=O)NO)c(=O)c3=O)cc2[nH]1
solubility at 24 h, 100 µM (µM): 4.4

compound: CC(C)(Nc1c(NCCCCCC(=O)NO)c(=O)c1=O)c1ccccc1
solubility at 24 h, 100 µM (µM): 88

compound: CC(Nc1c(NCCCCCC(=O)NO)c(=O)c1=O)C12CC3CC(CC(C3)C1)C2 (stereo not given)
solubility at 24 h, 100 µM (µM): 24

compound: Cc1ccccc1[C@H](C)Nc1c(NCCCCCC(=O)NO)c(=O)c1=O
solubility at 24 h, 100 µM (µM): 92

compound: CC(CCCCC(=O)NO)Nc1c(Nc2ccc(C(F)(F)F)cc2)c(=O)c1=O (racemic)
solubility at 24 h, 100 µM (µM): 30

compound: O=C(CCCCNc1c(Nc2ccccc2)c(=O)c1=O)NO
solubility at 24 h, 100 µM (µM): 87

compound: Cc1[nH]c2ccccc2c1CCNCc1ccc(/C=C/C(=O)NO)cc1 [PANOBINOSTAT]
solubility at 24 h, 100 µM (µM): 69

compound: CC(C)(CCCCC(=O)NO)Nc1c(Nc2ccc(C(F)(F)F)cc2)c(=O)c1=O
solubility at 24 h, 100 µM (µM): 36

compound: CCC(CCCCC(=O)NO)Nc1c(Nc2ccc(C(F)(F)F)cc2)c(=O)c1=O (racemic)
solubility at 24 h, 100 µM (µM): 6.6

compound: C[C@H](CCCCC(=O)NO)Nc1c(Nc2ccc(N(C)C)cc2)c(=O)c1=O
solubility at 24 h, 100 µM (µM): 80
